test system: biotinyl-Ile-oxazolone; assay: self-aminoacylation, catalytic enhancement (BIO) (fold over background); higher = more active; k-Seq, kA / k0A0; sequences stand for … in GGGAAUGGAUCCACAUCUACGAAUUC…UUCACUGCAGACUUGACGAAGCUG
This sample holds only a part of the variants without activity.
Kindly return criterion met if reported self-aminoacylation is no lower than 3; return criterion not met if it is lower.

Please review the following examples before continuing.
CUACUUUAAUCAAUCGGUCUG [Fam1A.1 aminoacylation ribozyme variant]	criterion not met
CGACACUUCAAGAAAUCGGUC [Fam1B.1 aminoacylation ribozyme variant]	criterion not met
AUUACCCCGGUCAUCCAGUGA [Fam2.1 aminoacylation ribozyme variant]	criterion met
AUGACCAUGGUCAUCGAGUGA [Fam2.1 aminoacylation ribozyme variant]	criterion met
AUUCACCUAUGUCAUCGAGUG [Fam2.2 aminoacylation ribozyme variant]	criterion met
AUUACCCGGGUCAUUGAGUGA [Fam2.1 aminoacylation ribozyme variant]	criterion met

Query: Decide: self-aminoacylation of AGGUUUGCUAAUAAUCGCAAG [Fam3.1 aminoacylation ribozyme variant] >= 3?
Reply: criterion not met

Query: Decide: self-aminoacylation of AUUCCCCUAGGUCAUCGGUUG [Fam2.2 aminoacylation ribozyme variant] >= 3?
Reply: criterion met
